Data provenance is ChEMBL document CHEMBL3400051.

System: MOLT-4
Experiment: Cytotoxicity against human MOLT4 cells assessed as cell viability after 72 hrs by CCK8 assay
Assay type: functional, cell-based
Settings: MOLT-4, 72 h
pIC50: −log10 of the molar value.
Reported pIC50 values for a set of compounds

- compound: "CC(=O)O[C@H]1C(=O)[C@@]2(C)[C@H]([C@H](OC(=O)c3ccccc3)[C@]3(O)C[C@H](OC(=O)[C@H](O)[C@@H](NC(=O)c4ccccc4)c4ccccc4)C(C)=C1C3(C)C)[C@]1(OC(C)=O)CO[C@@H]1C[C@@H]2O [PACLITAXEL]"
  pIC50: 8.66
- compound: "C/C=C(\\C)C(=O)O[C@@H]1[C@@H](C)[C@@]2(O)[C@@H](C=C(CO)C[C@]3(O)C(=O)C(C)=C[C@@H]23)[C@@H]2C(C)(C)[C@]12OC(=O)C(C)C"
  pIC50: 5.96
- compound: "CCC(C)C(=O)O[C@@]12[C@H](OC(=O)c3ccccc3)[C@@H](C)[C@@]3(O)[C@@H](C=C(CO)C[C@]4(O)C(=O)C(C)=C[C@@H]34)[C@@H]1C2(C)C (stereo not given in full)"
  pIC50: 4.92
- compound: "C/C=C(\\C)C(=O)O[C@@H]1[C@@H](C)[C@@]2(O)[C@@H](C=C(CO)C[C@]3(O)C(=O)C(C)=C[C@@H]23)[C@@H]2C(C)(C)[C@]12OC(=O)C(C)CC (stereo not given in full)"
  pIC50: 6.00
- compound: "CCC(C)C(=O)O[C@@]12[C@H](OC(C)=O)[C@@H](C)[C@@]3(O)[C@@H](C(=O)C(CO)=C[C@]4(O)C(=O)C(C)=C[C@@H]34)[C@@H]1C2(C)C (stereo not given in full)"
  pIC50: 5.00
